Molecular target: L858R/T790M/C797S EGFR (Homo sapiens, UniProt P00533, C797S/L858R/T790M)
Construct: expressed in transfected cells; host or cells: H1975 clone #25 (lentiviral over-expression, endogenous EGFR knocked out by sgRNA)
Sequence (P00533 25-1210 T790M/C797S/L858R): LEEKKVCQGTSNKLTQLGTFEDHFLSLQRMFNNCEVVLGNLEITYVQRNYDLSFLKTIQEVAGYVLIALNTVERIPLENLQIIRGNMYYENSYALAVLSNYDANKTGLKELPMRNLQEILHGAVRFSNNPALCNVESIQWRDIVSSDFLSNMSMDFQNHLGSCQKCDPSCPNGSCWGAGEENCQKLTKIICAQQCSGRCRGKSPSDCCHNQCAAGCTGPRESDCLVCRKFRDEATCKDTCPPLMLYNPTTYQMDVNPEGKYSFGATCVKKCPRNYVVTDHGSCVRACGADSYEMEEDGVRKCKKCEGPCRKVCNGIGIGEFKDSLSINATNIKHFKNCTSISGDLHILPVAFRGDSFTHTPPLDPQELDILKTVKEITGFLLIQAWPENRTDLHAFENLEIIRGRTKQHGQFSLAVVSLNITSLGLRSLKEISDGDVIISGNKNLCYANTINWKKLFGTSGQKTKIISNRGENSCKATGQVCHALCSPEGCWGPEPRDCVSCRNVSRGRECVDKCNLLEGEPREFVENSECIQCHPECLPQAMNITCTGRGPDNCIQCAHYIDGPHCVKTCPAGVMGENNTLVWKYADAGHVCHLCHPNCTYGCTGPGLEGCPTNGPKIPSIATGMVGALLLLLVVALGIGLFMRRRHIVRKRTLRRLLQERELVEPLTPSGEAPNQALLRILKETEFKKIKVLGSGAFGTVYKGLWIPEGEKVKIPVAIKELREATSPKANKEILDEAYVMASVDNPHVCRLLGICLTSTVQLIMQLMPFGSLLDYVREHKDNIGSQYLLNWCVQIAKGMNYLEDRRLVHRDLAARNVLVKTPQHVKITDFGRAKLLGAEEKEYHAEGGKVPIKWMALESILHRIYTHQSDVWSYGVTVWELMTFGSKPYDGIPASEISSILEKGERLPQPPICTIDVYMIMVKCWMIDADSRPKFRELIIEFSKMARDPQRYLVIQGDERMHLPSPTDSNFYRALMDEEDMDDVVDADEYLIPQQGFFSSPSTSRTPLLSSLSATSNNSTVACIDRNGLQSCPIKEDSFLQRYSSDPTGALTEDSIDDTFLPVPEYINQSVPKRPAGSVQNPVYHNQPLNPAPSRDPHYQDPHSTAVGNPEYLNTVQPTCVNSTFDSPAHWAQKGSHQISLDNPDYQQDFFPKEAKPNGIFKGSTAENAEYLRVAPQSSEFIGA
Assay: EGFR degradation HTRF assay in H1975-clone #25 (LTC) cells
Format: cell-based
Settings: H1975 # 25-LTC (L858R/T790M/C797S), 16h treatment, HTRF
metric_name: DC50

See these solved cases before continuing.
molecule	target_of_assay	DC50
Cc1cc2cc(n1)-c1cnn(C)c1OCCC[C@@H](C)CN1/C(=N/C2=O)Nc2ccc(C(=O)N3CCN(C4CCN(c5cc(F)c([C@H]6CCC(=O)NC6=O)c(F)c5)CC4)CC3)cc21 [Example 303]	L858R/T790M/C797S EGFR (Homo sapiens, UniProt P00533, C797S/L858R/T790M)	0.582 nM
Cc1cc2cc(n1)-c1cnn(C)c1OCCC[C@@H](C)CN1/C(=N/C2=O)Nc2ccc(C(=O)N(C)C3CCN(CCc4cccc5c4C4(CC4)C(=O)N5C4CCC(=O)NC4=O)CC3)cc21 (stereo partly shown) [Example 316]	L858R/T790M/C797S EGFR (Homo sapiens, UniProt P00533, C797S/L858R/T790M)	0.655 nM
Cc1cc2cc(n1)-c1cnn(C)c1OCCC[C@@H](C)CN1/C(=N/C2=O)Nc2ccc(C3CCN(C(=O)[C@H]4CN(c5cc(F)c([C@H]6CCC(=O)NC6=O)c(F)c5)CC4(C)C)CC3)cc21 [Example 327]	L858R/T790M/C797S EGFR (Homo sapiens, UniProt P00533, C797S/L858R/T790M)	3.17 nM
Cc1cc2cc(n1)-c1cnn(C)c1OCCC[C@@H](C)CN1/C(=N/C2=O)Nc2ccc(N(C)C3CN(C4CCN(c5cc(F)c([C@H]6CCC(=O)NC6=O)c(F)c5)CC4)C3)cc21 [Example 438]	L858R/T790M/C797S EGFR (Homo sapiens, UniProt P00533, C797S/L858R/T790M)	0.964 nM
Cc1cc2cc(n1)-c1cnn(C)c1OCCC[C@@H](C)CN1/C(=N/C2=O)Nc2ccc(C(=O)N(C)C3CCN(CC4CN(c5cc(F)c([C@H]6CCC(=O)NC6=O)c(F)c5)C4)CC3)cc21 [Example 286]	L858R/T790M/C797S EGFR (Homo sapiens, UniProt P00533, C797S/L858R/T790M)	0.45 nM

Parameters: items (list). Returns: DC50 for each item.
1. Cc1cc2cc(n1)-c1cnn(C)c1OCCC[C@@H](C)CN1/C(=N/C2=O)Nc2ccc(C(=O)N(C)[C@@H]3CCN(CCc4cc(F)c([C@H]5CCC(=O)NC5=O)c(F)c4)[C@H](C)C3)cc21 [Example 268]
2. Cc1cc2cc(n1)-c1cnn(C)c1OCCC[C@@H](C)CN1/C(=N/C2=O)Nc2ccc(N3CCN(C4CCN(c5cc(F)c([C@H]6CCC(=O)NC6=O)c(F)c5)CC4)[C@@H](CC#N)C3)cc21 [Example 452]

0.53 nM
0.98 nM

Batch request: DC50 per item, same order as input.
1. COC[C@@H]1CN(Cc2ccc3c(c2)N2C[C@H](C)CCCOc4c(cnn4C)-c4cc(cc(C)n4)C(=O)/N=C/2N3)CCN1C(=O)[C@@H]1CCN(c2cc(F)c([C@H]3CCC(=O)NC3=O)c(F)c2)C1 [Example 202]
2. Cc1cc2cc(n1)-c1cnn(C)c1OCCC[C@@H](C)CN1/C(=N/C2=O)Nc2ccc(CN3CCC(N4CCN(C5CN(c6cc(F)c([C@H]7CCC(=O)NC7=O)c(F)c6)C5)CC4)CC3)cc21 [Example 18]
3. Cc1cc2cc(n1)-c1cnn(C)c1OCCC[C@@H](C)CN1/C(=N/C2=O)Nc2ccc(CN3CC4CCC(C3)N4C(=O)[C@@H]3CCN(c4cc(F)c([C@H]5CCC(=O)NC5=O)c(F)c4)C3)cc21 [Example 83]

1: 0.89 nM; 2: 4.4 nM; 3: 2 nM
